For each of the binders below, state its MFI.
# Assayed system: T1, Trop-2 on Trop-2 expressing tumor cells (human, UniProt P09758 27-323)
# T1 construct: Endogenous Trop-2 of human tumour cell lines; also called Trop-2 positive tumor cells; A431 (Trop-2+++)
# T1 sequence: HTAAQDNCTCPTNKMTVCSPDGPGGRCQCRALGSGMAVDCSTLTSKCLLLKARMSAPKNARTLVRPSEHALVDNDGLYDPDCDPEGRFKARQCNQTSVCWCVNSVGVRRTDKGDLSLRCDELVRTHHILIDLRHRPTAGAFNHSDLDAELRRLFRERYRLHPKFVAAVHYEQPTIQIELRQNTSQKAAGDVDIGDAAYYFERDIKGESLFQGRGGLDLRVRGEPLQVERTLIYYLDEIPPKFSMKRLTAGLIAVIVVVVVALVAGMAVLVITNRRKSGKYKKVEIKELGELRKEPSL
# Test: flow cytometry, Colo205 cells (Trop-2+), 1 ug antibody per 300,000 cells
One number for each entry.

Take each entry in turn and give its MFI.
1. h7E6_SVG antibody (human IgG1) (antibody, V domains shown) VH: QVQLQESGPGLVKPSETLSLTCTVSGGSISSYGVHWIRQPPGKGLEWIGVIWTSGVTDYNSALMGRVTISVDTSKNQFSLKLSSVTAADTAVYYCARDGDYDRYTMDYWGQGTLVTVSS VL: DIVMTQSPDSLAVSLGERATINCRASKSVSTSGYSYMHWYQQKPGQPPKLLIYLASNLESGVPDRFSGSGSGTDFTLTISSLQAEDVAVYYCQHSRELPYTFGQGTKLEIK
2. h7E6_SVGL antibody (human IgG1) (antibody, V domains shown, Human IgG1) VH: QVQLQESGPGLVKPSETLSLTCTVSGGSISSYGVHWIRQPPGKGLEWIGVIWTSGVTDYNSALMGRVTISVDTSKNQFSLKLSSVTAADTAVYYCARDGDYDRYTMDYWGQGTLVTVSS VL: DIVMTQSPDSLAVSLGERATINCRASKSVSTSLYSYMHWYQQKPGQPPKLLIYLASNLESGVPDRFSGSGSGTDFTLTISSLQAEDVAVYYCQHSRELPYTFGQGTKLEIK
3. h7E6_L antibody (human IgG1) (antibody, V domains shown, Human IgG1) VH: QVQLQESGPGLVKPSETLSLTCTVSGGSISSYGVHWIRQPPGKGLEWIGVIWTGGSTDYNSALMSRVTISVDTSKNQFSLKLSSVTAADTAVYYCARDGDYDRYTMDYWGQGTLVTVSS VL: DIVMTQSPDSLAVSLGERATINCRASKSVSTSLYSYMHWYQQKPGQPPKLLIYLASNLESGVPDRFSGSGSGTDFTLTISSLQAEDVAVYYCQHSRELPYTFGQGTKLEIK

Result:
1: 2420; 2: 2420; 3: 2470

Take each entry in turn and give its MFI.
1. h7E6_WT antibody (human IgG1) (antibody, V domains shown, Human IgG1) VH: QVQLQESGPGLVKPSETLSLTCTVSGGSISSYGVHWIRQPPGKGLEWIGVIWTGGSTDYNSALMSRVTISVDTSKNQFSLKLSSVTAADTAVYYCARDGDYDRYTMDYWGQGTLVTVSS VL: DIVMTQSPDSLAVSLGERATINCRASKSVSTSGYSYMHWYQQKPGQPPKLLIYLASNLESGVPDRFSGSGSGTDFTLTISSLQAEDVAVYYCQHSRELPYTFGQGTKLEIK
2. h7E6_N antibody (human IgG1) (antibody, V domains shown, Human IgG1) VH: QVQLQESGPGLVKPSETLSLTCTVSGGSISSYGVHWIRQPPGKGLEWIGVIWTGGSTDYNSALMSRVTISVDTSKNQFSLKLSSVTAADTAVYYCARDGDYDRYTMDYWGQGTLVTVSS VL: DIVMTQSPDSLAVSLGERATINCRASKSVSTSNYSYMHWYQQKPGQPPKLLIYLASNLESGVPDRFSGSGSGTDFTLTISSLQAEDVAVYYCQHSRELPYTFGQGTKLEIK
3. h7E6_SVGN antibody (human IgG1) (antibody, V domains shown, Human IgG1) VH: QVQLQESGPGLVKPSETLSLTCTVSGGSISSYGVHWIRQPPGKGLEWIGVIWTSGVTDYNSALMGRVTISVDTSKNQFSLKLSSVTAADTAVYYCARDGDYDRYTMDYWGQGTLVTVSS VL: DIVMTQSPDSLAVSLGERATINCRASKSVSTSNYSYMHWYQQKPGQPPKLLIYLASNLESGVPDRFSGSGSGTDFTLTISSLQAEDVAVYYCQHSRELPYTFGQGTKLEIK

Result:
1: 1760; 2: 2700; 3: 2730
